Target: Adeno-associated virus serotype 9 (AAV9) (AAV9)
Test: SPR, AAV amine-coupled to CM5 chip, nanobody 1-50 nM as analyte
# kon listing for each entry below
Give me the value, and tack the unit on after it.

Previously resolved entries follow.
binder	kon
A4-T2 (A4-017 with a C-terminal GGGGS linker followed by a 6xHis tag) (VHH) VHH: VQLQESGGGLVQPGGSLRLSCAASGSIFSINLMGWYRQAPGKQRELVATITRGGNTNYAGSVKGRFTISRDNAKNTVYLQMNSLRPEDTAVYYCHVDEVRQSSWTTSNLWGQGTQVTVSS	195000 M⁻¹ s⁻¹
A4-M1 (A4-017 with an N-terminal amino acid sequence MetAlaGln) (VHH) VHH: QVQLQESGGGLVQPGGSLRLSCAASGSIFSINLMGWYRQAPGKQRELVATITRGGNTNYAGSVKGRFTISRDNAKNTVYLQMNSLRPEDTAVYYCHVDEVRQSSWTTSNLWGQGTQVTVSS	183000 M⁻¹ s⁻¹
A4-M2 (A4-017 with an N-terminal methionine) (VHH) VHH: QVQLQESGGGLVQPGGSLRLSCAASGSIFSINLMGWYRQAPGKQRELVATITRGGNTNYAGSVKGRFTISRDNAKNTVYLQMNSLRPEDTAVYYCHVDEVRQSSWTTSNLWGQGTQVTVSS	149000 M⁻¹ s⁻¹
A4-T1 (A4-017 with a C-terminal 6xHis tag) (VHH) VHH: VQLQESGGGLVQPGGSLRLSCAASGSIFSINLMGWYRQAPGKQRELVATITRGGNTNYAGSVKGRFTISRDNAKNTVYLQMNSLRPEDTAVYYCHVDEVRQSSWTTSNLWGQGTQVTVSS	168000 M⁻¹ s⁻¹

Quick one: kon for A4-L1 (A4-017 with a C-terminal IgA hinge followed by a 6xHis tag) (VHH) VHH: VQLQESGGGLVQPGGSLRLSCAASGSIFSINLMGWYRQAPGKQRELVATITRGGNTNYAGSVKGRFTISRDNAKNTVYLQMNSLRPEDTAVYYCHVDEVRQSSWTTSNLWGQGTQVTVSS ?
137000 M⁻¹ s⁻¹
